In this section, each of the compounds is paired with its reported Kp at 5 min.
- MEASUREMENT_DESCRIPTION: Mouse brain concentrations
- Assay type: in vivo
- CONDITION_CONTEXT: female, NMRI, mouse, brain; iv 1 mg/kg, 5 min; read-out: Mean plasma:brain ratio (plasma = 1.00)
PROPERTY_NAME: Kp at 5 min

# COMPOUND, RESULT_NUMBER
data = [
    ("CSc1ccc(OCc2ncc([N+](=O)[O-])n2C)cc1 [Fexinidazole]", 0.56),
    ("Cn1c([N+](=O)[O-])cnc1COc1ccc([S+](C)[O-])cc1 (stereo not drawn) [Fexinidazole sulfoxide]", 0.045),
    ("Cn1c([N+](=O)[O-])cnc1COc1ccc(S(C)(=O)=O)cc1 [Fexinidazole sulfone]", 0),
]

====

- MEASUREMENT_DESCRIPTION: Dog 28-day toxicokinetics
- Type: in vivo
- CONDITION_CONTEXT: both sexes, beagle, plasma, po, 200 mg/kg/day, 200 mg/kg/day po, day 14
PROPERTY_NAME: Cmax (ng/mL)

# COMPOUND, RESULT_NUMBER
measured = [
    ("Cn1c([N+](=O)[O-])cnc1COc1ccc(S(C)(=O)=O)cc1", 21800),
    ("CSc1ccc(OCc2ncc([N+](=O)[O-])n2C)cc1", 80),
    ("Cn1c([N+](=O)[O-])cnc1COc1ccc([S+](C)[O-])cc1 (stereo not drawn) [Fexinidazole sulfoxide]", 8990),
]

====

Listed here are compounds together with their documented Tmax.
- MEASUREMENT_DESCRIPTION: Dog single-dose IV and oral pharmacokinetics
- Type: in vivo
- CONDITION_CONTEXT: male, Beagle, dog, plasma; fexinidazole 1 mg/kg IV
PROPERTY_NAME: Tmax (h)

# COMPOUND, RESULT_NUMBER
measured = [
    ("Cn1c([N+](=O)[O-])cnc1COc1ccc([S+](C)[O-])cc1 (centres unmarked) [Fexinidazole sulfoxide]", 0.194),
    ("Cn1c([N+](=O)[O-])cnc1COc1ccc(S(C)(=O)=O)cc1 [Fexinidazole sulfone]", 4.67),
]

====

- MEASUREMENT_DESCRIPTION: Dog 28-day toxicokinetics
- Format: in vivo
- CONDITION_CONTEXT: both sexes, beagle, plasma, po, 800 mg/kg/day, 800 mg/kg/day po, day 14
PROPERTY_NAME: Cmax (ng/mL)

# COMPOUND, UNIT_INFO, RESULT_NUMBER
records = [
    ("CSc1ccc(OCc2ncc([N+](=O)[O-])n2C)cc1", "ng/mL", 140),
    ("Cn1c([N+](=O)[O-])cnc1COc1ccc(S(C)(=O)=O)cc1", "ng/mL", 36600),
    ("Cn1c([N+](=O)[O-])cnc1COc1ccc([S+](C)[O-])cc1 (stereo not drawn) [Fexinidazole sulfoxide]", "ng/mL", 13600),
]

====

In this section we review reported AUC(0-t) values for a set of compounds.
- MEASUREMENT_DESCRIPTION: Dog 28-day toxicokinetics
- Type: in vivo
- CONDITION_CONTEXT: both sexes, beagle, plasma, po, 50 mg/kg/day, 50 mg/kg/day po, day 14, read-out: AUC0-t(last)
- Protocol: In the dog repeated-dose toxicokinetic study, fexinidazole was given orally by gavage once a day for 28 days to five (control and high dose) or three (low and mid dose) beagle dogs/sex/dose at the doses of 0 (control group), 50, 200, or 800 mg/kg/day. The control group received the vehicle alone (same as above). Systemic exposure to fexinidazole and of its sulfoxide and sulfone metabolites was evaluated on days 1, 14 and 28 in the same animals used for the toxicological study. […]
PROPERTY_NAME: AUC(0-t) (ng·h/mL)

# COMPOUND, UNIT_INFO, RESULT_NUMBER
measured = [
    ("Cn1c([N+](=O)[O-])cnc1COc1ccc([S+](C)[O-])cc1 (stereo not drawn) [Fexinidazole sulfoxide]", "ng·h/mL", 13600),
    ("Cn1c([N+](=O)[O-])cnc1COc1ccc(S(C)(=O)=O)cc1", "ng·h/mL", 126000),
    ("CSc1ccc(OCc2ncc([N+](=O)[O-])n2C)cc1", "ng·h/mL", 150),
]

====

- MEASUREMENT_DESCRIPTION: Rat 28-day toxicokinetics
- Format: in vivo
- CONDITION_CONTEXT: Sprague Dawley (Crl:CD (SD)IGS BR), plasma, po, 50 mg/kg/day, Day 28, female, read-out: AUC within 24 hours post dosing
PROPERTY_NAME: AUC (µg·h/mL)

# COMPOUND, PROPERTY_NAME, RESULT_NUMBER
records = [
    ("CSc1ccc(OCc2ncc([N+](=O)[O-])n2C)cc1", "AUC", 1.45),
    ("Cn1c([N+](=O)[O-])cnc1COc1ccc([S+](C)[O-])cc1 (centres unmarked) [Fexinidazole sulfoxide]", "AUC", 53.8),
]

====

- MEASUREMENT_DESCRIPTION: Rat 28-day toxicokinetics
- Assay type: in vivo
- CONDITION_CONTEXT: Sprague Dawley (Crl:CD (SD)IGS BR), plasma, po, 200 mg/kg/day, Day 28, female, read-out: AUC within 24 hours post dosing
Here, each record is paired with measured AUC data.

# MOLECULE, AUC (ng·h/mL)
rows = [
    ("CSc1ccc(OCc2ncc([N+](=O)[O-])n2C)cc1 [Fexinidazole]", 4440),
    ("Cn1c([N+](=O)[O-])cnc1COc1ccc([S+](C)[O-])cc1 (centres unmarked) [Fexinidazole sulfoxide]", 138000),
]

====

- MEASUREMENT_DESCRIPTION: Mouse brain concentrations
- Format: in vivo
- CONDITION_CONTEXT: female, NMRI, mouse, brain, intravenous, 1 mg/kg, fexinidazole 1 mg/kg iv, 15 min; read-out: Brain concentration
PROPERTY_NAME: concentration at 15 min

# SMILES_STR, PROPERTY_NAME, RESULT
data = [
    ("CSc1ccc(OCc2ncc([N+](=O)[O-])n2C)cc1", "concentration at 15 min", "63.8 ng/g"),
]

====

- MEASUREMENT_DESCRIPTION: in vitro
- CONDITION_CONTEXT: human, Caco-2, pH 7.4

# COMPOUND, Papp B→A at 2 h, 5 µM
records = [
    ("CSc1ccc(OCc2ncc([N+](=O)[O-])n2C)cc1 [Fexinidazole]", "50.9 ×10⁻⁶ cm/s"),
]

====

- MEASUREMENT_DESCRIPTION: Rat 28-day toxicokinetics
- Format: in vivo
- CONDITION_CONTEXT: Sprague Dawley (Crl:CD (SD)IGS BR), plasma, po, 200 mg/kg/day, Day 28, male, read-out: apparent terminal half-life (converted)

# COMPOUND, UNIT_INFO, half-life
records = [
    ("CSc1ccc(OCc2ncc([N+](=O)[O-])n2C)cc1 [Fexinidazole]", "h", 8.8),
    ("Cn1c([N+](=O)[O-])cnc1COc1ccc([S+](C)[O-])cc1 (stereo not drawn) [Fexinidazole sulfoxide]", "h", 6.3),
    ("Cn1c([N+](=O)[O-])cnc1COc1ccc(S(C)(=O)=O)cc1 [Fexinidazole sulfone]", "h", 7.5),
]

====

- MEASUREMENT_DESCRIPTION: Rat single-dose IV and oral pharmacokinetics
- Type: in vivo
- CONDITION_CONTEXT: male, Sprague Dawley, plasma, fexinidazole 10 mg/kg oral, read-out: AUC0-t(last)
- Method: METHODS […] Fexinidazole was given as IV and oral administrations to male Sprague Dawley rats according to the following scheme Rat ID Route Dose (mg/kg) Formulation […] […] Bioanalytical Method Plasma concentrations of Fexinidazole were determined by a LC-MS-MS method. […] Absolute bioavailability was calculated from the ratio of the average oral to IV dose- normalized AUC0-∞ values. […] After oral administration, detectable concentrations of Fexinidazole were measured at the […] […]
PROPERTY_NAME: AUC(0-t) (ng·h/mL)

# MOLECULE, UNIT_INFO, RESULT_NUMBER
records = [
    ("Cn1c([N+](=O)[O-])cnc1COc1ccc(S(C)(=O)=O)cc1", "ng·h/mL", 14300),
    ("CSc1ccc(OCc2ncc([N+](=O)[O-])n2C)cc1", "ng·h/mL", 631),
    ("Cn1c([N+](=O)[O-])cnc1COc1ccc([S+](C)[O-])cc1 (stereo not drawn) [Fexinidazole sulfoxide]", "ng·h/mL", 16200),
]

====

- MEASUREMENT_DESCRIPTION: Rat 28-day toxicokinetics
- Format: in vivo
- CONDITION_CONTEXT: Sprague Dawley (Crl:CD (SD)IGS BR), plasma, po, 200 mg/kg/day, Day 28, male, read-out: AUC within 24 hours post dosing

# COMPOUND, AUC, ng·h/mL
measured = [
    ("CSc1ccc(OCc2ncc([N+](=O)[O-])n2C)cc1", 2330),
    ("Cn1c([N+](=O)[O-])cnc1COc1ccc([S+](C)[O-])cc1 (centres unmarked) [Fexinidazole sulfoxide]", 122000),
]
